# targetOrTestSystem: Receptor-type tyrosine-protein kinase FLT3 (Homo sapiens, UniProt P36888, ITD)
# assayName: Inhibition of FLT3 ITD mutant (unknown origin) using Glu/Tyr peptide substrate incubated for 80 mins measured after 40 mins incubation under dark by ADP-glo based luminescence assay
measuredQuantity: pKi
Answers are plain numbers, as −log10 of the molar value.

Before answering, review these 5 worked examples.
In [3]: df
Out[3]:
                             smilesnotation                        targetortestsystem  experimentalvalue
0  CC(=O)N1CCCN(c2cccc(Nc3nccc(-c4cnc5n(C)cccc4-5)n3)c2)CC1  Receptor-type tyrosine-protein kinase FLT3 (Homo sapiens, UniProt P36888, ITD)               9.15
1  CN1CCN(c2cccc(Nc3nccc(-c4c[nH]c5ncccc45)n3)c2)CC1  Receptor-type tyrosine-protein kinase FLT3 (Homo sapiens, UniProt P36888, ITD)               8.70
2  CC(=O)N1CCCN(c2cccc(Nc3nccc(-c4c[nH]c5cccnc45)n3)c2)CC1  Receptor-type tyrosine-protein kinase FLT3 (Homo sapiens, UniProt P36888, ITD)               6.97
3  CC(=O)N1CCN(c2ccc(Nc3nccc(-c4c[nH]c5ncccc45)n3)cc2)CC1  Receptor-type tyrosine-protein kinase FLT3 (Homo sapiens, UniProt P36888, ITD)              10.00
4  CC(=O)N1CCCN(c2cccc(Nc3nccc(-c4n[nH]c5ccccc45)n3)c2)CC1  Receptor-type tyrosine-protein kinase FLT3 (Homo sapiens, UniProt P36888, ITD)               9.22

Give pKi for all compounds that follow.
1. CC(=O)N1CCN(c2ccc(Nc3nccc(-c4cn(C)c5ncccc45)n3)cc2)CC1
2. CC(=O)N1CCN(c2ccc(Nc3ncc(C#N)c(-c4c(C)[nH]c5ccccc45)n3)cc2)CC1
3. CC(=O)N1CCN(c2ccc(Nc3nccc(-c4nn(C)c5ccccc45)n3)cc2)CC1
4. CC(=O)N1CCN(c2ccc(Nc3nccc(-c4cn(C)c5ccccc45)n3)cc2)CC1
5. CC(=O)N1CCN(c2ccc(Nc3ncc(C#N)c(-c4c[nH]c5ccccc45)n3)cc2)CC1

Response:
1. 8.70
2. 8.70
3. 6.56
4. 6.88
5. 9.40

---

# targetOrTestSystem: Cyclin-dependent kinase 1/cyclin B1 (Homo sapiens)
# Sequence (P06493 whole entry): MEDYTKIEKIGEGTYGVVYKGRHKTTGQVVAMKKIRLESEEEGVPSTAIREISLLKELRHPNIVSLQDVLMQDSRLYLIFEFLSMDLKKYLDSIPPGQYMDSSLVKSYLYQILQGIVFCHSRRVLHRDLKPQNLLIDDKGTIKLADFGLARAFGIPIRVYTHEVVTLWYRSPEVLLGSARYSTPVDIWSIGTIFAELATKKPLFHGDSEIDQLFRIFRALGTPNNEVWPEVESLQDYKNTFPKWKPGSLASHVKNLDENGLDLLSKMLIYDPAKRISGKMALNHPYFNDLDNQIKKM
# Sequence (P14635 whole entry, further chain): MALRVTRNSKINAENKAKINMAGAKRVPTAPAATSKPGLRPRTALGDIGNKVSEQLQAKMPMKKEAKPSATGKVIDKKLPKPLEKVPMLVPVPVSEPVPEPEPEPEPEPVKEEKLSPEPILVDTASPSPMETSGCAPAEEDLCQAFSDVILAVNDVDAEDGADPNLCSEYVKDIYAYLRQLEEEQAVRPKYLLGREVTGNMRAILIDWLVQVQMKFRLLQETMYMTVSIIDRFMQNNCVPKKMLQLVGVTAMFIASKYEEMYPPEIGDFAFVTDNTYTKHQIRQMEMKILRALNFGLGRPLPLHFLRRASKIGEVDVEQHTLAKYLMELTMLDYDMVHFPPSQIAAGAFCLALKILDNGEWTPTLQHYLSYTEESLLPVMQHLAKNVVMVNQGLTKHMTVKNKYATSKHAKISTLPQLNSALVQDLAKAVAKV
# assayName: Inhibition of CDK1/cyclin B (unknown origin) using histone 1 protein substrate incubated for 120 mins measured after 40 mins incubation under dark by ADP-glo based luminescence assay
measuredQuantity: Ki

Below, each entry is followed by its recorded Ki result.
>>> df
                             smilesnotation  measuredquantity  experimentalvalue
0  CC(=O)N1CCN(c2ccc(Nc3nccc(-c4cn(S(=O)(=O)c5ccc(C)cc5)c5ccccc45)n3)cc2)CC1                Ki             > 5 µM
1  CC(=O)N1CCCN(c2cccc(Nc3nccc(-c4c[nH]c5cccnc45)n3)c2)CC1                Ki             > 5 µM
2  CC(=O)N1CCN(c2ccc(Nc3nccc(-c4nn(C)c5ccccc45)n3)cc2)CC1                Ki             > 5 µM

For the 2 compounds below, give their Ki values.
1. CC(=O)N1CCN(c2ccc(Nc3nccc(-c4n[nH]c5ccccc45)n3)cc2)CC1
2. CC(=O)N1CCN(c2ccc(Nc3nccc(-c4c[nH]c5ncccc45)n3)cc2)CC1

Response:
> 5 µM
0.091 µM

---

# targetOrTestSystem: Cyclin-dependent kinase 2/cyclin E1 (Homo sapiens, UniProt P24941)
# assayName: Inhibition of CDK2/cyclin E (unknown origin) using histone 1 protein substrate incubated for 120 mins measured after 40 mins incubation under dark by ADP-glo based luminescence assay
Record form. Attribute: log10 of Ki. Fill in for each entry.
Scale: log10; quantity: Ki; unit before log: µM

In [3]: df
Out[3]:
                                   molecule  measuredquantity  experimentalvalue
0  CC(=O)N1CCCN(c2cccc(Nc3nccc(-c4c[nH]c5ncccc45)n3)c2)CC1       log10 of Ki              -1.51
1  CN1CCN(c2cccc(Nc3nccc(-c4c[nH]c5ncccc45)n3)c2)CC1       log10 of Ki              -1.08
2  CC(=O)N1CCN(c2ccc(Nc3ncc(C#N)c(-c4cn(C)c5ccccc45)n3)cc2)CC1       log10 of Ki               0.05

Report log10 of Ki for every entry below.
1. CC(=O)N1CCN(c2ccc(Nc3ncc(C#N)c(-c4c(C)[nH]c5ccccc45)n3)cc2)CC1
2. CCc1nc(C(N)=O)c(Nc2ccc(N3CCC(N4CCN(C)CC4)CC3)c(OC)c2)nc1NC1CCOCC1 [GILTERITINIB]
3. CC(=O)N1CCN(c2ccc(Nc3nccc(-c4c[nH]c5ncccc45)n3)cc2)CC1

Response:
1. 0.34
2. 0.17
3. -1.31

---

# targetOrTestSystem: Receptor-type tyrosine-protein kinase FLT3 (Homo sapiens, UniProt P36888, R595-E596INSEY)
# Sequence (P36888 whole entry, looked up, stated change not applied): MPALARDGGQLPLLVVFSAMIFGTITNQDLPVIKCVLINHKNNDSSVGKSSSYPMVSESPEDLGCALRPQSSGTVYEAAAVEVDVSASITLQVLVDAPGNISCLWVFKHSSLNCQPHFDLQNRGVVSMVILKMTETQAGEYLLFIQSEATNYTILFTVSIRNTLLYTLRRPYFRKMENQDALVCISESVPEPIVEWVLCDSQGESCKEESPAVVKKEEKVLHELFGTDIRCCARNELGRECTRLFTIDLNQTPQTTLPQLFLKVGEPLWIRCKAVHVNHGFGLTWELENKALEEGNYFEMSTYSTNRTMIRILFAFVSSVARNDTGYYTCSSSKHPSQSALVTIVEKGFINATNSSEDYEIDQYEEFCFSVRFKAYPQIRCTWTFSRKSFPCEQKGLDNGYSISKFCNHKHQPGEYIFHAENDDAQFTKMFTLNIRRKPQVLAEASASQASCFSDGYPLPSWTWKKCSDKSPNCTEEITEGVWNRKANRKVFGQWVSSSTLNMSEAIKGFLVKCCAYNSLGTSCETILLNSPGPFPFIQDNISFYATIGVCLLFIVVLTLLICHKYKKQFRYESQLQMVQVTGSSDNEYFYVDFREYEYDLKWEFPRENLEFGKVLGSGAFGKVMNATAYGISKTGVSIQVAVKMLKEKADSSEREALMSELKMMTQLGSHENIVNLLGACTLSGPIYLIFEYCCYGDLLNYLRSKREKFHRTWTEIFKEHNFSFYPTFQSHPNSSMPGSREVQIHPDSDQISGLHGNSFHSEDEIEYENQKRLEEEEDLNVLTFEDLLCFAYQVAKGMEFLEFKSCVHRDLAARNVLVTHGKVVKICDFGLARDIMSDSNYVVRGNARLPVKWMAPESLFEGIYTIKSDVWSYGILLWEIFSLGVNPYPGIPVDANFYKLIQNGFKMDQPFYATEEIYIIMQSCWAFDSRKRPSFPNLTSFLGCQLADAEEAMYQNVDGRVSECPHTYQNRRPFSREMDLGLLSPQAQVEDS
# assayName: Inhibition of FLT3 R595_E596insEY mutant (unknown origin) incubated for 120 mins by ADP-glo based luminescence assay
measuredQuantity: pKi
Answers are plain numbers, as −log10 of the molar value.

Entry under test: CC(=O)N1CCN(c2ccc(Nc3nccc(-c4cn(C)c5ncccc45)n3)cc2)CC1 . Its pKi was 7.11
